sequences and their reported self-splicing fitness (ln)
# assayRemarks: self-splicing fitness, log relative to wild type (ln ratio); higher = more splicing; Tetrahymena group I intron in knt gene, E. coli kanamycin selection, DiMSum; sequences stand for … in CUCUCU…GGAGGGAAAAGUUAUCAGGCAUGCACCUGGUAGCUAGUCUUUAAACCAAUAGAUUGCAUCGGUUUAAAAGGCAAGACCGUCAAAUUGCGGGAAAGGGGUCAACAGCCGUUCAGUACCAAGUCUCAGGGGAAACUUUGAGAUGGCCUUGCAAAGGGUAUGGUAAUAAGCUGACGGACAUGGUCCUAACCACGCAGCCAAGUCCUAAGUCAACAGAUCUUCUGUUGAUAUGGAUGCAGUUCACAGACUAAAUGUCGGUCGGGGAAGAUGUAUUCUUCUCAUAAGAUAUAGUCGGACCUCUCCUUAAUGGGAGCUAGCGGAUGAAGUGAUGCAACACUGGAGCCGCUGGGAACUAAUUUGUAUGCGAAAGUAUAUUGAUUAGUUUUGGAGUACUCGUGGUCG;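 further: selection with 25 µg/mL kanamycin versus none on LB agar overnight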
# conditionLabel: 30 °C
// print number alone

Reference set (3 entries):
recordSequence: CCCAAGCAAUAUUACGCUGU
self-splicing fitness (ln): -3.8
//
recordSequence: CGUGAGCAAUAUUACGGCUA
self-splicing fitness (ln): -1.68
//
recordSequence: ACUUAGCAAUAUUACGAGGU
self-splicing fitness (ln): -3.47

Now consider a different sequence.
Consider the sequence shown here: UGACAGCAAUAUUACGAAUA What is its recorded self-splicing fitness (ln)?
-1.26

====

# assayRemarks: self-splicing fitness, log relative to wild type (ln ratio); higher = more splicing; Tetrahymena group I intron in knt gene, E. coli kanamycin selection, DiMSum; sequences stand for … in CUCUCU…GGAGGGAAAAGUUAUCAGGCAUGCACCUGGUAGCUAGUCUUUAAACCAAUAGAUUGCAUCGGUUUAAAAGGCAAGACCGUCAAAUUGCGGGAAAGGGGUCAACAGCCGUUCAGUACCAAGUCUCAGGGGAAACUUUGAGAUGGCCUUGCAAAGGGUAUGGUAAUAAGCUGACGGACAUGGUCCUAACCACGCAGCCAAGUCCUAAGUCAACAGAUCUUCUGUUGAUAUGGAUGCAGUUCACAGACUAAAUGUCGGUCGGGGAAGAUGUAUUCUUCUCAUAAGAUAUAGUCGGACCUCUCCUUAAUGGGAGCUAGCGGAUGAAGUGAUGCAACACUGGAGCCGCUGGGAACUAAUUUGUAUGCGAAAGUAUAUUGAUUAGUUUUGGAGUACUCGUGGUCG
# conditionLabel: 30 °C
The threshold is inclusive: self-splicing fitness (ln) of exactly -3 counts as criterion met; values below receive criterion not met.

recordSequence: CGGAAGCAAUAUUACGCAGG
categoryLabel: criterion met

recordSequence: GUCGAGCAAUAUUACGGGUC
categoryLabel: criterion met

recordSequence: UGCCAGCAAUAUUACGUCGC
categoryLabel: criterion not met

recordSequence: UCUAAGCAAUAUUACGUACU
categoryLabel: criterion met

recordSequence: GGUUAGCAAUAUUACGCGUU
categoryLabel: criterion met

Could you tell me if the measured self-splicing fitness (ln) of GAAAAGCAAUAUUACGCUUA reaches -3 or more?
criterion met

Check if self-splicing fitness (ln) >= -3 (inclusive). Item: AUGUAGCAAUAUUACGACGG
criterion met

I'd appreciate it if you could say whether UGUUAGCAAUAUUACGCUAU has self-splicing fitness (ln) at least equal to -3.
criterion not met

Does UCUGAGCAAUAUUACGCUAU have a reported self-splicing fitness (ln) of at least -3?
criterion not met

Dear colleague, could you confirm whether CGGCAGCAAUAUUACGAAAA has self-splicing fitness (ln) at or above -3?
criterion met

Determine whether this sequence has self-splicing fitness (ln) no lower than -3: AUACAGCAAUAUUACGGUGA
criterion met

Could you verify whether the entry CCCCAGCAAUAUUACGUAGC shows self-splicing fitness (ln) of no less than -3?
criterion not met

Given the entry UGCCAGCAAUAUUACGUCUC , answer whether its self-splicing fitness (ln) meets or surpasses -3.
criterion not met

Hi team, for CGCGAGCAAUAUUACGUCAU , is the recorded self-splicing fitness (ln) at or above -3?
criterion met

Identify whether the reported self-splicing fitness (ln) of the following sequence is -3 or greater: CAGAAGCAAUAUUACGAAAC
criterion not met

====

# assayRemarks: self-splicing fitness, log relative to wild type (ln ratio); higher = more splicing; Tetrahymena group I intron in knt gene, E. coli kanamycin selection, DiMSum; sequences stand for … in CUCUCU…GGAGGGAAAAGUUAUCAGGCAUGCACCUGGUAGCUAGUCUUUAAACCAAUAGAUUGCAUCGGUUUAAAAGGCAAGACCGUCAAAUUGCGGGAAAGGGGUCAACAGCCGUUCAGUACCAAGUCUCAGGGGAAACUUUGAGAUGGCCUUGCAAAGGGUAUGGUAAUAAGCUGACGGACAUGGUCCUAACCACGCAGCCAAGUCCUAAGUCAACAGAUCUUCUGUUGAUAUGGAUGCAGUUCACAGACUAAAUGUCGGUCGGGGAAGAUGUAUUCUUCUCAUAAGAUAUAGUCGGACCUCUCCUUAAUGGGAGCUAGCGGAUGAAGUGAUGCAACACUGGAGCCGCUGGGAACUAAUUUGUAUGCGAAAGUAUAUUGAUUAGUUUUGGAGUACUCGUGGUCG
# conditionLabel: 30 °C
The reader will find reported self-splicing fitness (ln) values listed item by item below.
Give only the figure.

recordSequence: UGCAAGCAAUAUUACGAUUG
metricName: self-splicing fitness (ln)
dataValue: -1.93

Could you now consider this next sequence?
Can you share its self-splicing fitness (ln)? I mean this sequence: GUCGAGCAAUAUUACGUAUU
-1.52

====

# assayRemarks: self-splicing fitness, log relative to wild type (ln ratio); higher = more splicing; Tetrahymena group I intron in knt gene, E. coli kanamycin selection, DiMSum; sequences stand for … in CUCUCU…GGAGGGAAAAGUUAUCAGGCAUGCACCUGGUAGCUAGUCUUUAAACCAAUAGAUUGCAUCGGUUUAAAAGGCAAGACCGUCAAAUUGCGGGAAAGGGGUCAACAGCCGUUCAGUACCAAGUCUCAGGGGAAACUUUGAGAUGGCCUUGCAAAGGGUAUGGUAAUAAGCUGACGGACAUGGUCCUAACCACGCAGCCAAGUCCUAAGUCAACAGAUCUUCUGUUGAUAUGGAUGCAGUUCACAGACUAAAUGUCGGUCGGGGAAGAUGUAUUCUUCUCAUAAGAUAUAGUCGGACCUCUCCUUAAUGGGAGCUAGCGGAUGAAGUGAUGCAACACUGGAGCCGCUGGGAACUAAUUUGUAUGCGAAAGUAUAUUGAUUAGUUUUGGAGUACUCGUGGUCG
# conditionLabel: 37 °C
Listed below: self-splicing fitness (ln) values for each entry.

Reference set, count: 6
recordSequence: GGCCAGCAAUAUUACGAUAU
dataValue: -1.78
//
recordSequence: ACAGAGCAAUAUUACGAGGA
dataValue: -2.49
//
recordSequence: GCUGAGCAAUAUUACGGGGA
dataValue: -2.03
//
recordSequence: AAGUAGCAAUAUUACGCUGA
dataValue: -0.457
//
recordSequence: GCGCAGCAAUAUUACGAGGC
dataValue: -1.29
//
recordSequence: UCACAGCAAUAUUACGCAUC
dataValue: -3.04

Field request: self-splicing fitness (ln) | item: UUGCAGCAAUAUUACGUUGG
-2.42

Data request, read-out self-splicing fitness (ln), for CAGAAGCAAUAUUACGUAGC
-3.32

Tell me the measured self-splicing fitness (ln) of CACAAGCAAUAUUACGUUGC , please.
-2.66

Which self-splicing fitness (ln) is listed for UCAGAGCAAUAUUACGCGUU ?
-2.78

Item AUGAAGCAAUAUUACGGUGG has what recorded self-splicing fitness (ln)?
-1.92

====

# assayRemarks: self-splicing fitness, log relative to wild type (ln ratio); higher = more splicing; Tetrahymena group I intron in knt gene, E. coli kanamycin selection, DiMSum; sequences stand for … in CUCUCU…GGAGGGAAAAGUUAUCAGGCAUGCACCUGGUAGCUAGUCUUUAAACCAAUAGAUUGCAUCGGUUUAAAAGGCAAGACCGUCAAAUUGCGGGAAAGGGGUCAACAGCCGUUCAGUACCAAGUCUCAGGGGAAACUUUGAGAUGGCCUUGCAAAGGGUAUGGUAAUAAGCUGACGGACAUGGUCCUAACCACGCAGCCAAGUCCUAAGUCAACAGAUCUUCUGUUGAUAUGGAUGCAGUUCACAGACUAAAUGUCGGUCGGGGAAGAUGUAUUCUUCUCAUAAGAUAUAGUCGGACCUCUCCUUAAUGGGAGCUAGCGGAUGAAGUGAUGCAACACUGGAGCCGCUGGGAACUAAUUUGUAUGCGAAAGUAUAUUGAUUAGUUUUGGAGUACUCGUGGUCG
# conditionLabel: 30 °C
metricName: self-splicing fitness (ln)
Just the number, please, no unit attached.

recordSequence: CGACAGCAAUAUUACGCUUU
dataValue: -5.56

recordSequence: CAACAGCAAUAUUACGAAAC
dataValue: -3.87

recordSequence: GUUUAGCAAUAUUACGCAAC
dataValue: -3.59

recordSequence: UGCGAGCAAUAUUACGCGUG
dataValue: -4.3

recordSequence: AACAAGCAAUAUUACGUGCU
dataValue: -2.57

recordSequence: GUCCAGCAAUAUUACGCGCC
dataValue: -1.29

Could you tell me which self-splicing fitness (ln) is on file for CCCAAGCAAUAUUACGGGUU ?
-2.98

Query (sequence): GCACAGCAAUAUUACGAUUG ; field requested: self-splicing fitness (ln)
-2.27

So what's the measured self-splicing fitness (ln) for this one? UCCCAGCAAUAUUACGACUG
-3.58

Item UAGCAGCAAUAUUACGGGGG has what recorded self-splicing fitness (ln)?
-3.44

Any idea what its self-splicing fitness (ln) is? The sequence is GGGUAGCAAUAUUACGACAC
-0.676

Recorded self-splicing fitness (ln) for UGAGAGCAAUAUUACGGCUG , please?
-1.5

Reported self-splicing fitness (ln) for GCACAGCAAUAUUACGUUGC : what is it?
-3.95

Data request, read-out self-splicing fitness (ln), for AGGGAGCAAUAUUACGGUAC
-2.99

Need self-splicing fitness (ln) of UGAAAGCAAUAUUACGUAGA , thanks.
-1.88

Request the reported self-splicing fitness (ln) associated with UAUAAGCAAUAUUACGACAU
-1.09

FYI, the data here is from the supplement of paper PMC7877785.
